method-description: Agar coagulation time with cosmetic materials (3% agar)
protocol-conditions: sample concentration 10 % (w/w)
property-measured: Agar coagulation time (min)

                                    molecule      property_measured  numeric_value
 0                     CCCCOC(=O)c1ccc(O)cc1  Agar coagulation time         13.182
 1  COC(=O)c1ccc(O)cc1 [methyl p-hydroxybenzate]  Agar coagulation time         13.242
 2  Cl.NCCCC[C@H](N)C(=O)O [Lysine hydrochloride]  Agar coagulation time         13.238
 3                                      NCCO  Agar coagulation time         13.296
 4  CC(=O)Oc1c(C)c(C)c2c(c1C)CCC(C)(CCC[C@H](C)CCC[C@H](C)CCCC(C)C)O2 (some centres unmarked) [Tocopherol Acetate]  Agar coagulation time         13.185
 5  CCCCCCCCCCCCOS(=O)(=O)O.N [AmmoniumLauryl Sulfate, Ammonium Lauryl Sulfate]  Agar coagulation time         28.372
 6                              Nc1ccc(N)cc1  Agar coagulation time         27.500
 7  CCCCCCCCCCCCCC(=O)OC(C)C [Isopropyl Myristate]  Agar coagulation time         13.185
 8  CC(C)CCCC(C)CCCC(C)CCCCC(C)CCCC(C)CCCC(C)C (centres unmarked)  Agar coagulation time         13.276
 9                           O=C(O)c1ccccc1O  Agar coagulation time         13.144
10                    OO [Hydrogen Peroxide]  Agar coagulation time         91.139

###

method-description: Agar coagulation time with cosmetic materials (3% agar)
protocol-conditions: sample concentration 10 % (w/w)
Parameter Agar coagulation time: see the listing below.
property-measured: Agar coagulation time (min)

                         compound  sign  numeric_value
0                    Oc1cccc(O)c1     >           4320
1  CC(O)C(=O)O (stereo not shown)     =         43.302
2                        OCC(O)CO     =         13.333
3                    Nc1cccc(O)c1     =         24.478

###

The molecules listed here are annotated with their Agar coagulation time.
method-description: Agar coagulation time with cosmetic materials (3% agar)
protocol-conditions: sample concentration 20 % (w/w)
property-measured: Agar coagulation time

                                    molecule               result
 0                 Oc1cccc(O)c1 [Resorcinol]            >4320 min
 1          O=C(O)c1ccccc1O [Salicylic Acid]   13.219 ± 0.093 min
 2  COC(=O)c1ccc(O)cc1 [methyl p-hydroxybenzate]   13.208 ± 0.100 min
 3              Nc1cccc(O)c1 [3-Aminophenol]   43.671 ± 0.886 min
 4  CC(O)C(=O)O (stereo not shown) [Lactic acid]  253.306 ± 0.124 min
 5  Cl.NCCCC[C@H](N)C(=O)O [Lysine hydrochloride]   13.254 ± 0.119 min
 6         Nc1ccc(N)cc1 [p-Phenylenediamine]   39.489 ± 1.572 min
 7                       OCC(O)CO [Glycerin]   13.265 ± 0.067 min
 8  CC(C)CCCC(C)CCCC(C)CCCCC(C)CCCC(C)CCCC(C)C (stereo not shown) [Squalane]   13.254 ± 0.077 min
 9  CCCCCCCCCCCCCC(=O)OC(C)C [Isopropyl Myristate]   13.172 ± 0.065 min
10     CCCCOC(=O)c1ccc(O)cc1 [Butyl Paraben]   13.141 ± 0.050 min
11  CC(=O)Oc1c(C)c(C)c2c(c1C)CCC(C)(CCC[C@H](C)CCC[C@H](C)CCCC(C)C)O2 (stereo partly shown) [Tocopherol Acetate]   13.167 ± 0.066 min
12                   NCCO [Monoethanolamine]   13.345 ± 0.088 min

###

method-description: Cell viability analysis (MTT) cytotoxicity, B16-F10 cells
protocol-conditions: mouse, B16-F10 cells (ATCC CRL-6475)
Listed next: entries and their corresponding IC50 at 24 h.
property-measured: IC50 at 24 h

                                   molecule  property_measured         result
0                              Nc1cccc(O)c1       IC50 at 24 h      126 µg/mL
1                                      NCCO       IC50 at 24 h     3650 µg/mL
2                           O=C(O)c1ccccc1O       IC50 at 24 h      414 µg/mL
3  CC(C)CCCC(C)CCCC(C)CCCCC(C)CCCC(C)CCCC(C)C (stereo not shown)       IC50 at 24 h     5420 µg/mL
4  CCCCCCCCCCCCCC(=O)OC(C)C [Isopropyl Myristate]       IC50 at 24 h  > 10000 µg/mL
5  COC(=O)c1ccc(O)cc1 [methyl p-hydroxybenzate]       IC50 at 24 h     4850 µg/mL
6                              Oc1cccc(O)c1       IC50 at 24 h     4930 µg/mL
7  CC(=O)Oc1c(C)c(C)c2c(c1C)CCC(C)(CCC[C@H](C)CCC[C@H](C)CCCC(C)C)O2 (stereo partly shown) [Tocopherol Acetate]       IC50 at 24 h  > 10000 µg/mL
8                    OO [Hydrogen Peroxide]       IC50 at 24 h     48.9 µg/mL
9            CC(O)C(=O)O (stereo not shown)       IC50 at 24 h       66 µg/mL

###

method-description: Agar coagulation time with cosmetic materials (3% agar)
protocol-conditions: sample concentration 30 % (w/w)
property-measured: Agar coagulation time (min)

>>> print(df.to_string())
                                    compound      property_measured  sign  numeric_value
 0                                  OCC(O)CO  Agar coagulation time     =         13.322
 1  COC(=O)c1ccc(O)cc1 [methyl p-hydroxybenzate]  Agar coagulation time     =         13.203
 2  CC(C)CCCC(C)CCCC(C)CCCCC(C)CCCC(C)CCCC(C)C (stereo not shown)  Agar coagulation time     =         13.305
 3                           O=C(O)c1ccccc1O  Agar coagulation time     =         13.184
 4                                      NCCO  Agar coagulation time     =         13.354
 5  CCCCCCCCCCCCCC(=O)OC(C)C [Isopropyl Myristate]  Agar coagulation time     =         13.206
 6            CC(O)C(=O)O (stereo not shown)  Agar coagulation time     >           1440
 7                              Nc1cccc(O)c1  Agar coagulation time     =         67.444
 8                     CCCCOC(=O)c1ccc(O)cc1  Agar coagulation time     =         13.238
 9                              Oc1cccc(O)c1  Agar coagulation time     >           4320
10                              Nc1ccc(N)cc1  Agar coagulation time     =         52.689
11  CC(=O)Oc1c(C)c(C)c2c(c1C)CCC(C)(CCC[C@H](C)CCC[C@H](C)CCCC(C)C)O2 (stereo partly shown) [Tocopherol Acetate]  Agar coagulation time     =         13.192
12  Cl.NCCCC[C@H](N)C(=O)O [Lysine hydrochloride]  Agar coagulation time     =         13.286

###

method-description: Agar coagulation time with cosmetic materials (3% agar)
protocol-conditions: sample concentration 1 % (w/w)
property-measured: Agar coagulation time (min)

>>> print(df.to_string())
                                   molecule  numeric_value
0                              Oc1cccc(O)c1         32.821
1  CCCCCCCCCCCCCC(=O)OC(C)C [Isopropyl Myristate]         13.153
2            CC(O)C(=O)O (centres unmarked)         18.299
3  COC(=O)c1ccc(O)cc1 [methyl p-hydroxybenzate]         13.230
4                                  OCC(O)CO         13.220
5  CCCCCCCCCCCCOS(=O)(=O)O.N [AmmoniumLauryl Sulfate, Ammonium Lauryl Sulfate]         16.444
6                     CCCCOC(=O)c1ccc(O)cc1         13.186
7                              Nc1cccc(O)c1         16.489
